The values you see were collected from patent US7964341B2.

What Level of Control Activity (%) was measured for each of the following?
test system: HERV-K102 replication (cDNA production) in cultured cord blood cells; experiment: Screening for agents able to modulate HERV-K102 replication (cDNA production) in cultured cord blood cells, real time PCR ddCt ratio; format: cell-based, human; conditions: cord blood harvested Day 5; agents at approximately 10^-6 M or equivalent; relative to Day 5 control ddCt ratio
Answers are plain numbers, in %.

>>> observed_result("C[C@]12CC[C@H](O)CC1=CC[C@@H]1[C@@H]2CC[C@]2(C)C(=O)CC[C@@H]12 [DHEA, dihydroepiandrosterone]")
119

Record Level of Control Activity (%) per entry; entries follow.
1. CC/C(=C(\c1ccccc1)c1ccc(OCCN(C)C)cc1)c1ccccc1
2. CC1=C(c2ccc(O)cc2)[C@H](c2ccc(OCCN3CCCCC3)cc2)Oc2cc(O)ccc21
3. C[C@]12CC[C@@H]3c4ccc(O)cc4CC[C@H]3[C@@H]1CC[C@@H]2O [E2, estradiol]

[157, 140, 133]
